Tested on: MRC5
assay-summary: Cytotoxicity on MRC-5 cells at 3.13 uM
Assay type: functional
test-settings: Homo sapiens
Returns one of True or False; True when cytotoxicity at 3.13 µM is >= 40%.

Is cytotoxicity at 3.13 µM at least 40%? Consider COc1ccc2nc3cc(Cl)ccc3c(NCCCN(CCCNc3c4ccc(Cl)cc4nc4ccc(OC)cc34)C(=O)CCN(C)C)c2c1
False

Is cytotoxicity at 3.13 µM at least 40%? Consider COc1ccc2nc3cc(Cl)ccc3c(NCCNCCNc3c4ccc(Cl)cc4nc4ccc(OC)cc34)c2c1
True

Is cytotoxicity at 3.13 µM at least 40%? Consider COc1ccc2nc3cc(Cl)ccc3c(NCCCCCCCCCCNc3c4ccc(Cl)cc4nc4ccc(OC)cc34)c2c1
False

Is cytotoxicity at 3.13 µM at least 40%? Consider COc1ccc2nc3cc(Cl)ccc3c(NCCCN(CCCNc3c4ccc(Cl)cc4nc4ccc(OC)cc34)C(=O)C(CNC(=O)OC(C)(C)C)NC(=O)OC(C)(C)C)c2c1 (configuration not stated)
True

Is cytotoxicity at 3.13 µM at least 40%? Consider COc1ccc2nc3cc(Cl)ccc3c(NCCCN(CCCNc3c4ccc(Cl)cc4nc4ccc(OC)cc34)C(=O)C(COC(C)=O)NC(=O)OC(C)(C)C)c2c1 (configuration not stated)
False

Is cytotoxicity at 3.13 µM at least 40%? Consider COc1ccc2nc3cc(Cl)ccc3c(NCCCN(CCCNc3c4ccc(Cl)cc4nc4ccc(OC)cc34)C(=O)C(NC(=O)OC(C)(C)C)C(C)C)c2c1 (configuration not stated)
True

Is cytotoxicity at 3.13 µM at least 40%? Consider COc1ccc2nc3cc(Cl)ccc3c(NCCCN(CCCNc3c4ccc(Cl)cc4nc4ccc(OC)cc34)C(=O)C(CO)NC(=O)OC(C)(C)C)c2c1 (configuration not stated)
False
